# test details: IEC-6 cell viability reduction – luminescence, cytotoxicity control for KLF5 inhibitor project, primary screen (AID 1825)
# test settings: IEC-6 cytotoxicity, at 5 µM
Screen size: about 290,000 compounds; about 2,300 (0.79%) were called active. Cut-off read from the data, not from the text of the source: active = inhibition above about 22%; inactive = the rest. For the sample, actives were picked, then their nearest neighbours and some compounds at random.
Please reply with one of these outcomes: active, inactive

Query :: Given CCCCNc1nc2c(c(=O)n(C)c(=O)n2C)n1Cc1cccc(OC)c1 , state the outcome it received in this test.
Result :: active

Query :: Given Cc1ccc(NC(=O)CN(C)C(=O)c2ccc(Br)o2)cc1 , state the outcome it received in this test.
Result :: inactive

Query :: Given S=C(Nc1ccc(Br)cc1)NC1CCN(Cc2ccccc2)CC1 , state the outcome it received in this test.
Result :: inactive

Query :: Given Cc1ccc(Cl)cc1NC(=O)C1CCCN(c2cnccn2)C1 (stereo unspecified) , state the outcome it received in this test.
Result :: inactive

Query :: Given CCC(=O)Nc1ccc(C(=O)NNC(=O)c2ccc(Cl)cc2)cc1 , state the outcome it received in this test.
Result :: inactive

New cases:
Query :: Given CCCOn1c(-n2nc(C)cc2C)nc2ccccc2c1=O , state the outcome it received in this test.
Result :: active

Query :: Given CC(C)c1ccc(/C=C2\NC(=O)NC2=O)cc1 , state the outcome it received in this test.
Result :: inactive

Query :: Given COc1ccc(CCNC(=O)c2ccccc2OCc2ccccc2)cc1 , state the outcome it received in this test.
Result :: inactive

Query :: Given COc1ccc(C(=O)Nc2cc(C)c(NC(=O)c3ccccc3OC)cn2)cc1 , state the outcome it received in this test.
Result :: inactive
